Form field: drug sensitivity score (one value per entry).
- Tested on: UT-SCC-24A
- procedure.summary: drug sensitivity score (DSS); higher = more sensitive
- conditions.used: culture condition: plastic 2D (no matrix); treatment time: 3 days

- query.smiles: "CN(C)C/C=C/C(=O)Nc1cc2c(Nc3ccc(F)c(Cl)c3)ncnc2cc1O[C@H]1CCOC1"
  drug sensitivity score: "15.6 DSS"
- query.smiles: "O=C(NC[C@H](O)CO)c1ccncc1Nc1ccc(I)cc1F"
  drug sensitivity score: "28.3 DSS"
- query.smiles: "CO[C@H]1C[C@@H]2CC[C@@H](C)[C@@](O)(O2)C(=O)C(=O)N2CCCC[C@H]2C(=O)O[C@H]([C@H](C)C[C@@H]2CC[C@@H](OP(C)(C)=O)[C@H](OC)C2)CC(=O)[C@H](C)/C=C(\\C)[C@@H](O)[C@@H](OC)C(=O)[C@H](C)C[C@H](C)/C=C/C=C/C=C/1C"
  drug sensitivity score: "5.87 DSS"
- query.smiles: "C=CC(=O)Nc1cc2c(Nc3ccc(F)c(Cl)c3)ncnc2cc1OCCCN1CCOCC1"
  drug sensitivity score: "23.5 DSS"
- query.smiles: "Cn1cnc2c(F)c(Nc3ccc(Br)cc3Cl)c(C(=O)NOCCO)cc21"
  drug sensitivity score: "17.9 DSS"
- query.smiles: "Cn1cnc2c(F)c(Nc3ccc(Br)cc3F)c(C(=O)NOCCO)cc21"
  drug sensitivity score: "18.1 DSS"
- query.smiles: "COc1ncc(-c2ccc3nccc(-c4ccnnc4)c3c2)cc1NS(=O)(=O)c1ccc(F)cc1F"
  drug sensitivity score: "25 DSS"
- query.smiles: "Cn1c(=O)c(F)c(Nc2ccc(I)cc2F)c2c(=O)n(C[C@@H](O)CO)cnc21"
  drug sensitivity score: "24.6 DSS"
- query.smiles: "COc1cc2ncnc(Nc3ccc(F)c(Cl)c3)c2cc1OCCCN1CCOCC1"
  drug sensitivity score: "16.4 DSS"
- query.smiles: "CO[C@H]1C[C@@H]2CC[C@@H](C)[C@@](O)(O2)C(=O)C(=O)N2CCCC[C@H]2C(=O)O[C@H]([C@H](C)C[C@@H]2CC[C@@H](OC(=O)C(C)(CO)CO)[C@H](OC)C2)CC(=O)[C@H](C)/C=C(\\C)[C@@H](O)[C@@H](OC)C(=O)[C@H](C)C[C@H](C)/C=C/C=C/C=C/1C"
  drug sensitivity score: "6.07 DSS"
- query.smiles: "CO[C@H]1C[C@@H]2CC[C@@H](C)[C@@](O)(O2)C(=O)C(=O)N2CCCC[C@H]2C(=O)O[C@H]([C@H](C)C[C@@H]2CC[C@@H](OCCO)[C@H](OC)C2)CC(=O)[C@H](C)/C=C(\\C)[C@@H](O)[C@@H](OC)C(=O)[C@H](C)C[C@H](C)/C=C/C=C/C=C/1C"
  drug sensitivity score: "2.57 DSS"
- query.smiles: "COc1cc(F)c(F)c(Nc2ccc(I)cc2F)c1NS(=O)(=O)C1(C[C@H](O)CO)CC1"
  drug sensitivity score: "26.7 DSS"

---

- System: UT-SCC-42B
- procedure.summary: relative IC50 (midpoint of the fitted curve; maximal inhibition may be below 50%); higher = less potent
- conditions.used: culture condition: plastic 2D (no matrix); treatment time: 3 days

- query.smiles: "CN(C)C/C=C/C(=O)Nc1cc2c(Nc3ccc(F)c(Cl)c3)ncnc2cc1O[C@H]1CCOC1"
  relative IC50 [nM]: 27.5
- query.smiles: "COc1cc(F)c(F)c(Nc2ccc(I)cc2F)c1NS(=O)(=O)C1(C[C@H](O)CO)CC1"
  relative IC50 [nM]: 218
- query.smiles: "COc1ncc(-c2ccc3nccc(-c4ccnnc4)c3c2)cc1NS(=O)(=O)c1ccc(F)cc1F"
  relative IC50 [nM]: 31.4
- query.smiles: "Cc1c(CN2CCN(C(=O)[C@H](C)O)CC2)sc2c(N3CCOCC3)nc(-c3cnc(N)nc3)nc12"
  relative IC50 [nM]: 2390
- query.smiles: "CO[C@H]1C[C@@H]2CC[C@@H](C)[C@@](O)(O2)C(=O)C(=O)N2CCCC[C@H]2C(=O)O[C@H]([C@H](C)C[C@@H]2CC[C@@H](OCCO)[C@H](OC)C2)CC(=O)[C@H](C)/C=C(\\C)[C@@H](O)[C@@H](OC)C(=O)[C@H](C)C[C@H](C)/C=C/C=C/C=C/1C"
  relative IC50 [nM]: 20.8
- query.smiles: "Cn1cnc2c(F)c(Nc3ccc(Br)cc3F)c(C(=O)NOCCO)cc21"
  relative IC50 [nM]: 54.3

Origin of measurements: the supplement of paper PMC7017272
